- Test system: IL-13 induced STAT6 phosphorylation in BEAS-2B human lung epithelial cells
- procedureDetails: Cellular JAKI potency assay (BEAS-2B)
- Format: cell-based
- recordedConditions: Homo sapiens, BEAS-2B, BEAS-2B cells, read-out: BEAS2B pIC50 (converted)
observationType: IC50

In [3]: df
Out[3]:
                            structuresmiles       reported
0  CCc1cc(O)ccc1-c1ccc2c(-c3nc(C4=CCN(CCC(C)(C)O)C4)c[nH]3)n[nH]c2c1  3.16 to 10 nM
1  CCc1cc(O)ccc1-c1ccc2c(-c3nc(C4=CCN(CCNC(=O)C5CCC5)CC4)c[nH]3)n[nH]c2c1F  10 to 31.6 nM
2  CCc1cc(O)ccc1-c1ccc2c(-c3nc(C4=CCN[C@@H](C)C4)c[nH]3)n[nH]c2c1F  10 to 31.6 nM

Now consider the entry below.
Dear colleague, I am looking for the recorded IC50 of the following molecule: "CCc1cc(O)ccc1-c1ccc2c(-c3nc(C4=CCN(C(=O)COCCNCCOC)C4)c[nH]3)n[nH]c2c1F"
100 to 316 nM

* * *

- System: IL-13 induced STAT6 phosphorylation in BEAS-2B human lung epithelial cells
- procedureDetails: Cellular JAKI potency assay (BEAS-2B)
- Assay type: cell-based
- recordedConditions: Homo sapiens, BEAS-2B, BEAS-2B cells, read-out: BEAS2B pIC50 (converted)
observationType: IC50

>>> print(df.to_string())
                                   compound        reported
0  CCc1cc(O)ccc1-c1ccc2c(-c3nc(C4=CCN(C5CCNC5=O)CC4)c[nH]3)n[nH]c2c1F (stereo not shown) [Example 84]  31.6 to 100 nM
1  CCc1cc(O)ccc1-c1ccc2c(-c3nc(C4=CCN(C5CCCN(C)C5)C4)c[nH]3)n[nH]c2c1F (stereo not shown) [Example 223]   10 to 31.6 nM
2  CCc1cc(O)ccc1-c1ccc2c(-c3nc(C4=CCN(Cc5cn[nH]c5)CC4)c[nH]3)n[nH]c2c1 [Example 132]   3.16 to 10 nM
3  CCc1cc(O)ccc1-c1ccc2c(-c3nc(C4=CC(C)NC4)c[nH]3)n[nH]c2c1F (stereo not shown) [Example 244]   3.16 to 10 nM
4  CCc1cc(O)ccc1-c1ccc2c(-c3nc(C4=CCN(C5CN(C)C5)C4)c[nH]3)n[nH]c2c1F [Example 202]   10 to 31.6 nM
5  CCc1cc(O)ccc1-c1ccc2c(-c3nc(C4=CCCN(C[C@H](C)CO)C4)c[nH]3)n[nH]c2c1F [Example 48]   10 to 31.6 nM

Now look at this entry.
What does the data say about its IC50? Entry: CCc1cc(O)ccc1-c1ccc2c(-c3nc(C4=CC[C@H](C)N(C(C)CO)C4)c[nH]3)n[nH]c2c1F (stereo partly shown) [Example 259]
10 to 31.6 nM

* * *

IC50: recorded values
- Test system: IL-13 induced STAT6 phosphorylation in BEAS-2B human lung epithelial cells
- procedureDetails: Cellular JAKI potency assay (BEAS-2B)
- Format: cell-based
- recordedConditions: Homo sapiens, BEAS-2B, BEAS-2B cells, read-out: BEAS2B pIC50 (converted)

Solved cases (3 shown):
                            structuresmiles           reported
0  CCc1cc(O)ccc1-c1ccc2c(-c3nc(C4=CCN(C(=O)CCNC)C4)c[nH]3)n[nH]c2c1F   0.0316 to 0.1 µM
1  CCc1cc(O)ccc1-c1ccc2c(-c3nc(C4=CCCN(C(=O)NC)C4)c[nH]3)n[nH]c2c1   0.0316 to 0.1 µM
2  CCc1cc(O)ccc1-c1ccc2c(-c3nc(C4=CCN(C5CCOCC5)CC4)c[nH]3)n[nH]c2c1F  0.01 to 0.0316 µM

What is its IC50 for IL-13 induced STAT6 phosphorylation in BEAS-2B human lung epithelial cells? Entry: "CCc1cc(O)ccc1-c1ccc2c(-c3nc(C4=C[C@@H](CO)N(C)C4)c[nH]3)n[nH]c2c1F"
0.01 to 0.0316 µM
